src = patent US20230340142A1

- target_system: T1, human PD-L1 (human, UniProt Q9NZQ7 19-238, limits assumed)
- T1 construct: also called hPD-L1
- T1 sequence (Q9NZQ7 19-238 limits assumed): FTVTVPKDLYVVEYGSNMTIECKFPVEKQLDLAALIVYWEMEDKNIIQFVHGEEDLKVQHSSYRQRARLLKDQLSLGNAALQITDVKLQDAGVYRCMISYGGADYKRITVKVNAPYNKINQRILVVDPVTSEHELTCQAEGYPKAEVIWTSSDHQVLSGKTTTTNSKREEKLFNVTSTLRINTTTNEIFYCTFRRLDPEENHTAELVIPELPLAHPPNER
- assay_protocol: Octet-96 BLI; antigen not named, taken as human PD-L1
Below, each entry is listed alongside its reported Kd.
quantity: Kd (nM)

# binder, quantity, unit_text, readout_value
rows = [
    ("BhVH2/BhVL1 (antibody, V domains shown, Humanized Clone B; VH and VL cloned into vectors carrying constant regions (CH1-FC/CL), expressed in 293F cells; also called humanized Clone B, Bh VH2 + Bh VL1) VH: QGQLVQSGAEVKKPGASVKVSCKTSGFTFSSSYISWVRQAPGQGLEWMGWIYAGTGGTSYNQKFTGRVTMTVDTSTSTAYMELRSLRSDDTAVYYCARHEGKYWYFDVWGQGTTVTVSS VL: DIQMTQSPSSLSASVGDRVTITCSASSSVSYVHWYQQKPGKAPKPWIYDTSNLASGFPSRFSGSGSGTDYTLTISSLQPEDFATYYCHQRSSYPWTFGGGTKVEIK", "Kd", "nM", 1.13),
    ("ChVH3/ChVL3 (antibody, V domains shown, Humanized Clone C; constant regions (CH1-FC/CL) from the vector, expressed in 293F cells; also called humanized Clone C, Ch VH3 + Ch VL3) VH: QVQLVQSGAEVKKPGASVKVSCKASGFNIKDTYMHWVRQAPGQGLEWIGRIDPANGNTKYDPKFQGRVTITTDTSANTAYMELSSLRSEDTAVYYCARGLGRWFAYWGQGTTVTVSS VL: DIQMTQSPSSLSASVGDRVTITCQASQDVSNAVAWYQQKPGKAPKLLIYSASNLYTGVPSRFSGSGSGTDFTFTISSLQPEDIATYYCQQHDSTPLTFGQGTKLELK", "Kd", "nM", 0.242),
    ("DhVH-CDR graft/ DhVL-CDR graft (antibody, V domains shown, also called CDR-grafted humanized Clone D) VH: QVQLVQSGAEVKKPGASVKVSCKASGYSFTGYTMNWVRQAPGQGLEWMGLIIPYNGGISYNQKFKDRVTMTRDTSISTVYMELSRLRSDDTAVYYCASLITTAPRDSMDYWGQGTLVTVSS VL: DIQMTQSPSSLSASVGDRVTITCRASQDISNYLNWYQQKPGKAPKLLIYYTSKLHSGVPSRFSGSGSGTDFTFTISSLQPEDIATYYCQQGDALPWTFGGGTKVEIK", "Kd", "nM", 10.3),
]
